Listed here are compounds together with their documented % Inhibition.
system: P. falciparum stage V gametocytes; parameters: BacTiter-Glo ATP luminescence viability of purified stage V gametocytes in 384-well plates, per cent inhibition versus DMSO; settings: 48 h, 5 µM; inhibitor
Hit rate of the full screen: of about 13,000 compounds, about 3,200 (25%) showed an effect of 50% or more. Some of the results follow.

compound: Cc1c(C)n(C2CCCCC2)c2ncnc(OC3CCN(CC(=O)N4CCCC4)CC3)c12 [TCMDC-124854]
% Inhibition / %: 2.854
--
compound: Cc1nnc(-c2ccc3ccccc3c2)c2cn(-c3cccc([N+](=O)[O-])c3)nc12 [TCMDC-138592]
% Inhibition / %: 4.043
--
compound: CN1CCN(CCCN(Cc2csc(-c3ccc(CNCc4ccccc4)cc3)n2)S(=O)(=O)c2cccc3cccnc23)CC1 [TCMDC-141598]
% Inhibition / %: 96.08
--
compound: Cc1cc2nc(-c3cc(-c4cccc(NS(C)(=O)=O)c4)cnc3N)[nH]c2cc1C [TCMDC-133558]
% Inhibition / %: -28.88
--
compound: COc1ccc(S(=O)(=O)N(CCCN2CCN(C)CC2)Cc2csc(-c3ccc(CNCc4ccccc4)cc3)n2)cc1 [TCMDC-141599]
% Inhibition / %: 65.47
--
compound: CC(C)(C)COC(=O)c1ccc(NC(=O)N[C@@H](Cc2ccc(O)cc2)C(=O)NC2CCN(Cc3ccc(O)cc3)C2)cc1 (stereo partly shown) [TCMDC-135356]
% Inhibition / %: -84.6
--
compound: COc1cccc(OC)c1C(=O)Nc1cccc(-c2nn3ccccc3c2-c2ccnc(Nc3cccc(F)c3)n2)c1 [TCMDC-135847]
% Inhibition / %: -55.46

* * *

Listed here are molecules together with their documented % Inhibition.
tested on: P. falciparum stage V gametocytes; set-up: BacTiter-Glo ATP luminescence viability of purified stage V gametocytes in 384-well plates, per cent inhibition versus DMSO; details: 48 h, 5 µM; inhibitor
The campaign covered roughly 13,000 compounds. About 3,200 (25%) showed an effect of 50% or more. The list shows a part of the results.
assay-readout: % Inhibition

molecule: N#Cc1ccc(N(CCOC(=O)c2ccccc2)Cc2ccccc2C(F)(F)F)cc1C(F)(F)F
result: -18.34%
--
molecule: COCCn1c(C)cc(C(=O)CN2C(=O)NC(C)(c3ccc(C(C)(C)C)cc3)C2=O)c1C (centres unmarked)
result: 51.6%
--
molecule: N#Cc1ccc(N(CCOc2ccc(Cl)cc2)Cc2ccccc2C(F)(F)F)cc1C(F)(F)F
result: -24.46%
--
molecule: Cc1cc(C(=O)CN2C(=O)NC(C)(c3ccc4ccccc4c3)C2=O)c(C)n1Cc1ccco1 (centres unmarked)
result: -21.37%
--
molecule: CC(=O)Nc1ccc(OCCCN(Cc2ccccc2C(F)(F)F)c2ccc(C(F)(F)F)c(C#N)c2)c(Cl)c1
result: 61.05%
--
molecule: CCCCCCCc1cc(O)c2c3c(c(=O)oc2c1)CN(C)CC3
result: 8.32%
--
molecule: CC(=O)Nc1ccc(OCCN(Cc2ccccc2C(F)(F)F)c2ccc(C#N)c(C(F)(F)F)c2)cc1
result: 0.1764%
--
molecule: O=C(Nc1cccc([N+](=O)[O-])c1)Nc1ccc(Cl)c(C(F)(F)F)c1
result: -89.27%

* * *

tested on: P. falciparum stage V gametocytes; design: BacTiter-Glo ATP luminescence viability of purified stage V gametocytes in 384-well plates, per cent inhibition versus DMSO; conditions: 48 h, 5 µM; inhibitor
Out of some 13,000 compounds screened, about 3,200 (25%) showed an effect of 50% or more. The list shows a part of the results.
assay-readout: % Inhibition (%)

compound: O=C(Nc1ccccc1O)C1CCN(c2ncnc3cc(-c4ccc(F)cc4)sc23)CC1 [TCMDC-124822]
numeric-value: -65.25
--
compound: CC(C)CCNC(=N)Nc1ccc(OCCCOc2ccc(NC(=N)NCCC(C)C)cc2)cc1 [TCMDC-137615]
numeric-value: 100.2
--
compound: O=C(N1CCN(c2cccc(C(F)(F)F)c2)CC1)C(Cl)(Cl)Cl [TCMDC-125655]
numeric-value: -5.728
--
compound: COc1ccc(NC(=O)[C@H](CC(C)C)Nc2cc(C)nc(NCCOc3ccccc3)n2)cc1 [TCMDC-134760]
numeric-value: 36.25
--
compound: O=C(NCCN1CCCCC1)N1CCCN(c2ncnc3cc(-c4ccccc4)sc23)CC1 [TCMDC-134392]
numeric-value: 3.881
--
compound: CN(C)CCNC(=O)N1CCCN(c2ncnc3cc(-c4ccccc4)sc23)CC1 [TCMDC-134389]
numeric-value: -9.14
--
compound: CN(C)CCNC(=O)NC1CN(c2ncnc3cc(-c4ccccc4)sc23)C1 [TCMDC-134388]
numeric-value: -2.865
--
compound: NOCCCOc1ccc(Cl)cc1 [TCMDC-123471]
numeric-value: 6.801
--
compound: CC(C)CCNC(=N)Nc1ccc(OCCCCCOc2ccc(NC(=N)NCCC(C)C)cc2)cc1 [TCMDC-137614]
numeric-value: 113.6

* * *

tested on: P. falciparum stage V gametocytes; design: BacTiter-Glo ATP luminescence viability of purified stage V gametocytes in 384-well plates, per cent inhibition versus DMSO; details: 48 h, 5 µM; inhibitor
Hit rate of the full screen: of about 13,000 compounds, about 3,200 (25%) showed an effect of 50% or more. Some of the results follow.
Record Fulfilled whenever % Inhibition is at 10% or higher; record Not fulfilled when lower.

compound: CCOc1cc(C(=O)NC2CC(C)(C)NC(C)(C)C2)ccc1-c1nc2ccc(Cl)cc2[nH]1 [TCMDC-140404]
class-assignment: Fulfilled
--
compound: CCOc1cc(C(=O)NC2CC(C)(C)N(C)C(C)(C)C2)ccc1-c1nc2cc(Cl)c(Cl)cc2[nH]1 [TCMDC-140058]
class-assignment: Fulfilled
--
compound: O=[N+]([O-])c1cccc(Nc2nccc(-c3cnn4ncccc34)n2)c1 [TCMDC-138697]
class-assignment: Not fulfilled
--
compound: CCOc1cc(C(=O)NC2CC(C)(C)NC(C)(C)C2)ccc1-c1cc2cc(Cl)c(Cl)cc2[nH]1 [TCMDC-139960]
class-assignment: Fulfilled
--
compound: CCN(CC)c1ccc(C(c2ccc(N(CC)CC)cc2)c2ccc([N+](=O)[O-])cc2)cc1 [TCMDC-131286]
class-assignment: Not fulfilled
--
compound: COc1cc(C(=O)NC2CC(C)(C)NC(C)(C)C2)ccc1-c1cc2cc(Cl)c(Cl)cc2[nH]1 [TCMDC-139693]
class-assignment: Not fulfilled
--
compound: COCCNCc1cccc(C#Cc2cc3ncnc(Nc4ccc(OCc5cccc(F)c5)c(Cl)c4)c3s2)n1 [TCMDC-138842]
class-assignment: Not fulfilled
--
compound: Cc1cccc(Nc2nc(NCCCCN)nc3cc[nH]c(=O)c23)c1 [TCMDC-134946]
class-assignment: Fulfilled
--
compound: c1cc(Nc2nccc(-c3cnn4ncccc34)n2)cc(-c2cnco2)c1 [TCMDC-138684]
class-assignment: Not fulfilled
--
compound: O=C(/C=C/c1ccc(Cl)cc1)NCCCCCN1CCCN(C(=O)Nc2ccc(Cl)c(C(F)(F)F)c2)CC1 [TCMDC-136100]
class-assignment: Not fulfilled
--
compound: CCN(CC)CCOc1ccc(N(Cc2ccc(C(C)(C)C)cc2)C(=O)c2ccc(Cc3ccccc3)cc2)cc1OC [TCMDC-140667]
class-assignment: Fulfilled
--
compound: Cc1c(-c2ccc(C(=O)NC3CC(C)(C)NC(C)(C)C3)cc2)[nH]c2cc(Cl)c(Cl)cc12 [TCMDC-140975]
class-assignment: Fulfilled
--
compound: COc1cc(C(=O)NC2CC(C)(C)N(C)C(C)(C)C2)ccc1-c1cc2cc(Cl)c(Cl)cc2[nH]1 [TCMDC-139227]
class-assignment: Fulfilled
--
compound: O=C(NCCN1CCOCC1)c1ccc(N2CCC(Oc3ccc4ccccc4c3)CC2)nc1 [TCMDC-134400]
class-assignment: Fulfilled
--
compound: CN1C(C)(C)CC(NC(=O)c2ccc(-c3nc4cc(Cl)c(Cl)cc4[nH]3)cc2)CC1(C)C [TCMDC-139250]
class-assignment: Fulfilled

* * *

system: P. falciparum stage V gametocytes; set-up: BacTiter-Glo ATP luminescence viability of purified stage V gametocytes in 384-well plates, per cent inhibition versus DMSO; conditions: 48 h, 5 µM; inhibitor
Among all 13,000 compounds or so, about 3,200 (25%) showed an effect of 50% or more. This is one part of the list.
Listed here are molecules together with their documented % Inhibition.

molecule: COc1cc(-c2nc(-c3ccc4c(c3)CCC4=NO)c(-c3ccncc3)[nH]2)ccc1OCCN1CCCCC1
% Inhibition (%): 22.85

molecule: CCCCNCC(O)COc1ccccc1-c1ccc(N/N=C/c2cccc3ccccc23)nn1 (centres unmarked)
% Inhibition (%): 102.4

molecule: CC(C)NCc1ccc(-c2cccc(NC(=O)c3cccc(Cl)c3)c2)cc1
% Inhibition (%): 18.79

molecule: O=C(Nc1cccc(F)c1)c1ccc(C(=O)NC2CCN(CC3CCCCC3)C2)cc1 (centres unmarked)
% Inhibition (%): 0.01446

molecule: CC(C)NCc1ccc(-c2ccc(NC(=O)c3ccc(Cl)cc3)cc2)cc1
% Inhibition (%): 47.91

molecule: CN(C)C(=S)N=Nc1c(O)[nH]c2ccc(OC(F)(F)F)cc12
% Inhibition (%): -50.91

molecule: CCN1CCC(N(Cc2ccc(-c3ccc(C(F)(F)F)cc3)cc2)C(=O)Cn2nc(C)c(=O)cc2SCc2ccc(F)cc2)CC1
% Inhibition (%): 72.73

molecule: Cc1[nH]c(C)c([N+](=O)[O-])c(=O)c1-c1ccc(Oc2ccccc2)cc1
% Inhibition (%): 22.46

Entry source: paper PMC4552634
